target: ATP-dependent Clp protease proteolytic subunit (Bacillus subtilis (strain 168)) (UniProt P80244); experiment: qHTS Assay for Activators of ClpP; also: the source files actives as falling curves though it sought activators and does not explain the sign; nearly all actives have a fitted effect of over 65% in size; settings: purified B. subtilis ClpP, FRET peptide cleavage, 20 min; series mostly up to 57.5 µM
About 6,400 (1.9%) of roughly 340,000 compounds were called active. Roughly 4% stayed inconclusive and do not appear here. Calls follow the shape of the dose curve; as a rule, active = well fitted falling curve with a large enough effect; inconclusive = small, poorly fitted or top-dose-only effect; inactive = no such curve, though single readings can be large or run the other way. The sample as a whole holds a higher share of actives than the screen did.
Classes used: active, inactive

MOLECULE: O=C(c1ccc(CSc2ccccc2)cc1)N1CCCCCC1
QUALITATIVE_LABEL: inactive
//
MOLECULE: O=C(OCC(=O)N1CCN(C(=O)c2ccco2)CC1)c1cccc(O)c1
QUALITATIVE_LABEL: inactive
//
MOLECULE: O=C(OCC(=O)N1CCN(C(=O)c2ccco2)CC1)c1ccc(Cl)c(Cl)c1
QUALITATIVE_LABEL: inactive
//
MOLECULE: O=C(OCC(=O)N1CCN(C(=O)c2ccco2)CC1)c1c(Cl)cccc1Cl
QUALITATIVE_LABEL: active
//
MOLECULE: OCCC#Cc1ccc(N2C(c3ccsc3)=Cc3ccc(F)cc3C2c2c[nH]c3ccccc23)cc1 (stereo not given)
QUALITATIVE_LABEL: inactive
//
MOLECULE: CCOc1ccccc1NC(=O)Cn1c(=O)n(Cc2ccco2)c(=O)c2sc3ccccc3c21
QUALITATIVE_LABEL: inactive
//
MOLECULE: CN(C)c1cc[n+](Cc2ccccc2)cc1
QUALITATIVE_LABEL: inactive
//
MOLECULE: Cc1cc(NCc2ccco2)n2c(nc3ccccc32)c1C#N
QUALITATIVE_LABEL: active
//
MOLECULE: O=C(Cn1c(=O)n(-c2ccc(F)cc2)c(=O)c2sc3ccccc3c21)NC1CCCC1
QUALITATIVE_LABEL: inactive
//
MOLECULE: O=C(Cn1c(=O)n(Cc2ccccc2)c(=O)c2sc3ccccc3c21)Nc1ccccc1F
QUALITATIVE_LABEL: active

----------
target: ATP-dependent Clp protease proteolytic subunit (Bacillus subtilis (strain 168)) (UniProt P80244); test: qHTS Assay for Activators of ClpP; also: the source files actives as falling curves though it sought activators and does not explain the sign; nearly all actives have a fitted effect of over 65% in size; conditions: purified B. subtilis ClpP, FRET peptide cleavage, 20 min; series mostly up to 57.5 µM
Hit rate of the full screen: of about 340,000 compounds, about 6,400 (1.9%) were called active. Inconclusive results (about 4%) are left out. Calls come from the whole dose curve; as a rule, active = well fitted falling curve with a large enough effect; inconclusive = small, poorly fitted or top-dose-only effect; inactive = no such curve, though single readings can be large or run the other way. Only a selection was taken, and actives are over-represented in it overall.
Classes used: active, inactive

COMPOUND: O=C(NNc1nc(N2CCCC2)nc(N2CCCC2)n1)c1ccccc1
QUALITATIVE_LABEL: inactive

COMPOUND: O=C(CSC1=Nc2ccccc2C2=NC(c3ccccc3)C(=O)N12)NCC1CCCO1 (stereo not given)
QUALITATIVE_LABEL: active

COMPOUND: O=C(Nc1cccc(S(=O)(=O)N2CCOCC2)c1)C12CC3CC(CC(C3)C1)C2
QUALITATIVE_LABEL: active

COMPOUND: Cc1nn(-c2ccccc2)c2c1C(c1ccc(F)cc1)C(C#N)=C(N)O2 (stereo not given)
QUALITATIVE_LABEL: inactive

COMPOUND: O=C(CSC1=Nc2ccccc2C2=NC(CC(=O)NCc3ccco3)C(=O)N12)NCc1ccco1 (stereo not given)
QUALITATIVE_LABEL: inactive

COMPOUND: Cc1ccc(CNC(=O)CSC2=Nc3ccccc3C3=NC(C)C(=O)N23)cc1 (stereo not given)
QUALITATIVE_LABEL: inactive

COMPOUND: C=CCNC(=O)c1ccc2nc(-c3ccco3)c(-c3ccco3)nc2c1
QUALITATIVE_LABEL: inactive

COMPOUND: CSc1ccc(-c2c(C#N)c(N)nc3c2c(C)nn3-c2ccccc2)cc1
QUALITATIVE_LABEL: active

COMPOUND: Cc1cccn2c(=O)c3cc(C(=O)N4COCC4(C)C)n(C)c3nc12
QUALITATIVE_LABEL: active

COMPOUND: COCCCn1c(C(=O)NC2CCCCC2)cc2c(=O)n3cccc(C)c3nc21
QUALITATIVE_LABEL: inactive
